Value source: patent US4547508A

experiment: Acute toxicity in the mouse after intraperitoneal administration (ALD50); parameters: species or system male mice (Gassner, NMRI); settings: in vivo, ip, deaths within 24 hours after administration
observation.type: LD50 at 24 h (mg/kg)
Record the value in mg/kg, omitting the unit from your answer.

Input: Please give the measured LD50 at 24 h for this molecule: `c1ccc(-c2nc(C3CCNCC3)cc3ccccc23)cc1`
Output: 75

Input: Please give the measured LD50 at 24 h for this molecule: `Cc1ccccc1-c1nc(C2CCN(C)CC2)cc2ccccc12`
Output: 27

Input: Please give the measured LD50 at 24 h for this molecule: `CN1CC=C(c2cc3ccccc3c(-c3ccccc3Cl)n2)CC1`
Output: 100

Input: Please give the measured LD50 at 24 h for this molecule: `C=CCN1CC=C(c2cc3ccccc3c(-c3ccccc3C)n2)CC1`
Output: 300

Input: Please give the measured LD50 at 24 h for this molecule: `C1=C(c2cc3ccccc3c(-c3ccccc3)n2)CCNC1`
Output: 300

Input: Please give the measured LD50 at 24 h for this molecule: `CN1CCC=C(c2cc3ccccc3c(-c3ccccc3)n2)C1`
Output: 40

Input: Please give the measured LD50 at 24 h for this molecule: `CN1CC=C(c2cc3ccccc3c(-c3ccccc3F)n2)CC1`
Output: 85

Input: Please give the measured LD50 at 24 h for this molecule: `C1=C(c2cc3ccccc3c(-c3ccccc3)n2)CNCC1`
Output: 75

Input: Please give the measured LD50 at 24 h for this molecule: `CCN1CC=C(c2cc3ccccc3c(-c3ccccc3C)n2)CC1`
Output: 100

----------
Please go through the items and note down their LD50 at 24 h.
test: Acute toxicity in the mouse after intraperitoneal administration (ALD50); design: species or system male mice (Gassner, NMRI); details: in vivo, ip, deaths within 24 hours after administration
Record the value in mg/kg, omitting the unit from your answer.

Input: Please give the measured LD50 at 24 h for this compound: `C=CCN1CCC(c2cc3ccccc3c(-c3ccccc3C)n2)CC1`
Output: 55

Input: Please give the measured LD50 at 24 h for this compound: `CN1CCC(c2cc3ccccc3c(-c3ccccc3)n2)CC1`
Output: 28

Input: Please give the measured LD50 at 24 h for this compound: `Cc1ccccc1-c1nc(C2=CCNCC2)cc2ccccc12`
Output: 210
